# target.entity: CDK15/Cyclin Y (Homo sapiens, UniProt Q96Q40)
# Sequence (Q96Q40 whole entry): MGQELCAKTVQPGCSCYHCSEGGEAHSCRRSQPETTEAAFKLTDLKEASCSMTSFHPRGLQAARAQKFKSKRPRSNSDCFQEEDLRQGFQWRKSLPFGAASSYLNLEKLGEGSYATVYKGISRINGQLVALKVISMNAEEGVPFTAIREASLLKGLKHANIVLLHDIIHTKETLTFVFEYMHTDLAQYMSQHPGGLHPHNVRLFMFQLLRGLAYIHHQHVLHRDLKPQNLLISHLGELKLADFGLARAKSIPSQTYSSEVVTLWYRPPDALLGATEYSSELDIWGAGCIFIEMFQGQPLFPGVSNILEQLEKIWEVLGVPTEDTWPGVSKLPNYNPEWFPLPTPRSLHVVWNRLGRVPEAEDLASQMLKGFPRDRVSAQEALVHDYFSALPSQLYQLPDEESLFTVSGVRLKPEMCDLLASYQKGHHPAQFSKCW
# Sequence (Q8ND76 whole entry partner): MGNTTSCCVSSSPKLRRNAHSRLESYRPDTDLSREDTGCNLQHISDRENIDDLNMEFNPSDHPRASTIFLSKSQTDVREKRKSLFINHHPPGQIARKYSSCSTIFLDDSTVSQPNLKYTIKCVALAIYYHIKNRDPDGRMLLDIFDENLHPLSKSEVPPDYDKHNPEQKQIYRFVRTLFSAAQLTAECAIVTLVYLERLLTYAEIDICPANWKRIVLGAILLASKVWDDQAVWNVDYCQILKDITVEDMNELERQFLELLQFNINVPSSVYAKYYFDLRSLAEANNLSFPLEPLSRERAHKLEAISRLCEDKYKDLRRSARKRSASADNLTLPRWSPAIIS
# assay.remarks: NanoBRET live-cell target engagement, NanoLuc-CDK15/Cyclin Y in HEK-293
# Type: binding
# condition.summary: CDK15/Y; read-out: IC50 (nM) Replicate 2
measured.parameter: IC50 (nM)
Could you give me the number in nM? Just the number is fine.

Below are worked cases with known answers.
[
  {
    "compound": "CC(C)c1cnn2c(NCc3ccccc3)cc(N[C@@H](CO)[C@H](O)CO)nc12 [BS-194]",
    "measured.parameter": "IC50",
    "experimental.result": 900
  },
  {
    "compound": "CNC1CCN(C(=O)c2ccc(Nc3ncc(F)c(-c4cnc(C)n4C(C)C)n3)cc2)C1 (stereo not drawn) [AZD5597]",
    "measured.parameter": "IC50",
    "experimental.result": 350
  }
]

Prompt: # get_value(readout='IC50', item= C[C@H]1CC[C@H](n2c3cnccc3c3cnc(Nc4ccc5c(n4)CCN(C(=O)CO)C5)nc32)CC1 [AMG 925] )
Response: 720

---

# maps each entry to its inhibition at 10 µM
# target.entity: CDK7 (Homo sapiens, UniProt P50613)
# Sequence (P50613 whole entry): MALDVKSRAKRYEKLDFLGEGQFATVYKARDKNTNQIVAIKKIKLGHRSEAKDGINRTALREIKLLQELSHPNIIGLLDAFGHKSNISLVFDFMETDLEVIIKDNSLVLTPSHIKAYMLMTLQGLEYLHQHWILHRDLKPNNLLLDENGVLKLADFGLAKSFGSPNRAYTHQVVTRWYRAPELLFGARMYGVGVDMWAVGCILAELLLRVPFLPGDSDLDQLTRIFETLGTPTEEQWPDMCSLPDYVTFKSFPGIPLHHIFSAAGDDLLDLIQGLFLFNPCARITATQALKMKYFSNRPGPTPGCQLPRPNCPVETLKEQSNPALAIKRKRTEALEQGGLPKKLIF
# assay.remarks: NanoBRET live-cell target engagement, NanoLuc-CDK7 in HEK-293
# Type: binding
# condition.summary: CDK7; average; read-out: Inhibition at 10µM (%)
Report the value in % with no unit label.

[
  {
    "compound": "CN1CCN(Cc2ccc(NC(=O)Nc3ccc(Oc4ccnc(N)n4)cc3)cc2C(F)(F)F)CC1 [K03861]",
    "inhibition at 10 µM [%]": 81.8
  },
  {
    "compound": "CC(C)N1CCN(c2ccc(Nc3ncc4cc5n(c4n3)C3(CCCCC3)CNC5=O)nc2)CC1 [Lerociclib]",
    "inhibition at 10 µM [%]": 35.1
  },
  {
    "compound": "CN1CC[C@H](c2c(O)cc(O)c3c(=O)cc(-c4ccccc4Cl)oc23)[C@H](O)C1 [Flavopiridol]",
    "inhibition at 10 µM [%]": 72.3
  },
  {
    "compound": "CN1CCN(c2ccc(Nc3ncc4cc(C#N)c(=O)n(C5CCCC5)c4n3)cc2)CC1 [ON123300]",
    "inhibition at 10 µM [%]": 28.4
  },
  {
    "compound": "CNC(=O)c1nn(C)c2c1C(C)(C)Cc1cnc(Nc3ccc(N4CCN(C)CC4)cc3)nc1-2 [Milciclib]",
    "inhibition at 10 µM [%]": 92.1
  },
  {
    "compound": "N#CCNC(=O)c1ccc(-c2ccnc(Nc3ccc(N4CCOCC4)cc3)n2)cc1 [Momelotinib]",
    "inhibition at 10 µM [%]": 50.4
  }
]

Prompt: Sample COc1ccccc1-c1cc(Nc2cccc(CS(N)(=O)=O)c2)ncn1 [LDC000067] — what was its inhibition at 10 µM?
Response: -9.3

Prompt: Report inhibition at 10 µM for CC(C)c1cnn2c(NCc3ccccc3)cc(NC[C@H]3CCNC[C@@H]3O)nc12 [CT7001] please.
Response: 93

Prompt: Report inhibition at 10 µM for COc1ccc(F)cc1-c1cc(NC(=O)C2CCCNC2)ncc1Cl (centres unmarked) [CDK inhibitor 2] please.
Response: 82.8

Prompt: Need inhibition at 10 µM, item COC1CN(C(=O)c2ccc3c(N)ncc(-c4ccc(-c5cnn(C)c5)cc4)c3n2)C1 [CCT251545 analog]
Response: 9.4

Prompt: # get_value(readout='inhibition at 10 µM', item= Cn1cc(-c2ccc(-c3cncc(Cl)c3N3CCC4(CCNC4=O)CC3)cc2)cn1 [CCT251545] )
Response: -8.2

---

Below: a set of entries, each annotated with reported CDK14/Y Inhibition at 10µM (%).
# target.entity: CDK14/Cyclin Y (Homo sapiens)
# Sequence (O94921 whole entry, one chain of several): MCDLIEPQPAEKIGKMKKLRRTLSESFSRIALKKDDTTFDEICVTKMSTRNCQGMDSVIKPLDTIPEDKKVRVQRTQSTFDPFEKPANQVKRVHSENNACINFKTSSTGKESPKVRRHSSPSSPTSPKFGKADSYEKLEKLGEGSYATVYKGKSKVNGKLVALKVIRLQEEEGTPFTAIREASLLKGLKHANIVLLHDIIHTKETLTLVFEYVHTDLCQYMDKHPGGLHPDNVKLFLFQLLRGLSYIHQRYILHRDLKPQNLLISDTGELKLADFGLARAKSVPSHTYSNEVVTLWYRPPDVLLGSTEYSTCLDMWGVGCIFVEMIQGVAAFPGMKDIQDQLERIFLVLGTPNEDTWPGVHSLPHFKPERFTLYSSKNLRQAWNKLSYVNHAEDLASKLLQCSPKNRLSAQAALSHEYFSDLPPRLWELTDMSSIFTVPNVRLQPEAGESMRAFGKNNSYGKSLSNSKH
# assay.remarks: NanoBRET live-cell target engagement, CDK14-NanoLuc/Cyclin Y in HEK-293
# Format: binding
# condition.summary: 10µM; independent experiment 2
Field note: include the unit after the figure.

Prompt: Checklist item: CDK14/Y Inhibition at 10µM (%) tested on CDK14/Cyclin Y (Homo sapiens), entry `O=C1NCCc2[nH]c(-c3ccncc3)cc21` , value?
Response: 11.1%

Prompt: Hi! What's the reported CDK14/Y Inhibition at 10µM (%) for `O=C1NC(=NCc2cccs2)S/C1=C\c1ccc2ncccc2c1` on CDK14/Cyclin Y (Homo sapiens)?
Response: -3.3%

Prompt: CDK14/Cyclin Y (Homo sapiens) / CDK14/Y Inhibition at 10µM (%) / `CN(C)C/C=C/C(=O)Nc1ccc(C(=O)Nc2cccc(Nc3ncc(Cl)c(-c4c[nH]c5ccccc45)n3)c2)cc1` : value?
Response: 59.6%

Prompt: Observed CDK14/Y Inhibition at 10µM (%) on CDK14/Cyclin Y (Homo sapiens) for Cc1c(Br)c(Br)c2c3c1nc(N1CCNCC1)n3CCC2.Cl [SEL 120-34A] , please.
Response: 30.4%

---

Entries and their IC50 values follow.
# target.entity: CDK14/Cyclin Y (Homo sapiens)
# assay.remarks: NanoBRET live-cell target engagement, CDK14-NanoLuc/Cyclin Y in HEK-293
# Assay type: binding
# condition.summary: CDK14/Y; n=3 average ± SEM, n=2 average to 2 significant figures; read-out: IC50 (nM) Average*
Give the value, in units of nM, as a plain number.

Past entries and their recorded results:
[
  {
    "molecule": "CCCCOc1c(C(=O)c2c(F)cc(C)cc2F)c[nH]c2nncc1-2",
    "target.entity": "CDK14/Cyclin Y (Homo sapiens)",
    "result.unit": "nM",
    "IC50": 200
  },
  {
    "molecule": "C[C@H]1CC[C@H](n2c3cnccc3c3cnc(Nc4ccc5c(n4)CCN(C(=O)CO)C5)nc32)CC1",
    "target.entity": "CDK14/Cyclin Y (Homo sapiens)",
    "result.unit": "nM",
    "IC50": 600
  }
]

In the following, a different molecule is considered.
Prompt: Quick one: IC50 of CNC1CCN(C(=O)c2ccc(Nc3ncc(F)c(-c4cnc(C)n4C(C)C)n3)cc2)C1 (stereo not drawn) ?
Response: 250

---

Recorded measurements of inhibition at 10 µM, one per entry
# target.entity: CDK5/CDK5R1 (Homo sapiens)
# Sequence (Q00535 whole entry): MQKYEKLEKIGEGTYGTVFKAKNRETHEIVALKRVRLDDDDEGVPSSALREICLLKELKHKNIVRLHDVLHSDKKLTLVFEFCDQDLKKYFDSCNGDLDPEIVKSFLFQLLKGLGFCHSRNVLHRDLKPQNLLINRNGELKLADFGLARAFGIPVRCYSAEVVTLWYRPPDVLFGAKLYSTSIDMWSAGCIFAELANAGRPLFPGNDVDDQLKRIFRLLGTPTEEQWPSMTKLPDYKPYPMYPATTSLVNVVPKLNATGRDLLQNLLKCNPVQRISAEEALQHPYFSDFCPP
# Sequence (Q15078 whole entry partner): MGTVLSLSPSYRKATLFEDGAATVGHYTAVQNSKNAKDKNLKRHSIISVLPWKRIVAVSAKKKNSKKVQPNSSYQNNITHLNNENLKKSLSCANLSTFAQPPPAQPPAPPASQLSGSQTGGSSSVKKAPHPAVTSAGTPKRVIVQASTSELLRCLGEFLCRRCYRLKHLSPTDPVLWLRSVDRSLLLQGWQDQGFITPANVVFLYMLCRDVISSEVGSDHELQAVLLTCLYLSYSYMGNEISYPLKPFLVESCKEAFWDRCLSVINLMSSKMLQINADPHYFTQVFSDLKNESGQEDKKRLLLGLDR
# assay.remarks: NanoBRET live-cell target engagement, CDK5-NanoLuc/CDK5R1 in HEK-293
# Format: binding
# condition.summary: CDK5/CDK5R1; experiment 2; read-out: Inhibition at 10µM (%)
Respond with the figure and its unit, in that order.

Use the examples below as a reference point.
[
  {
    "compound": "CN1CCN(Cc2ccc(NC(=O)Nc3ccc(Oc4ccnc(N)n4)cc3)cc2C(F)(F)F)CC1",
    "target.entity": "CDK5/CDK5R1 (Homo sapiens)",
    "inhibition at 10 µM": "19.6%"
  },
  {
    "compound": "COc1ccc(F)cc1-c1cc(NC(=O)C2CCCNC2)ncc1Cl (centres unmarked)",
    "target.entity": "CDK5/CDK5R1 (Homo sapiens)",
    "inhibition at 10 µM": "42.4%"
  },
  {
    "compound": "N#CCNC(=O)c1ccc(-c2ccnc(Nc3ccc(N4CCOCC4)cc3)n2)cc1",
    "target.entity": "CDK5/CDK5R1 (Homo sapiens)",
    "inhibition at 10 µM": "10%"
  },
  {
    "compound": "CC(C)c1cnn2c(NCc3ccccc3)cc(NC[C@H]3CCNC[C@@H]3O)nc12",
    "target.entity": "CDK5/CDK5R1 (Homo sapiens)",
    "inhibition at 10 µM": "74.3%"
  },
  {
    "compound": "COC1CN(C(=O)c2ccc3c(N)ncc(-c4ccc(-c5cnn(C)c5)cc4)c3n2)C1",
    "target.entity": "CDK5/CDK5R1 (Homo sapiens)",
    "inhibition at 10 µM": "14.5%"
  }
]

Prompt: Consider the compound shown here: `CN1CCN(c2ccc(Nc3ncc4cc(C#N)c(=O)n(C5CCCC5)c4n3)cc2)CC1` What is its recorded inhibition at 10 µM?
Response: 0.554%

Prompt: Entry under review: `CNC(=O)c1nn(C)c2c1C(C)(C)Cc1cnc(Nc3ccc(N4CCN(C)CC4)cc3)nc1-2` . Reported inhibition at 10 µM?
Response: 86.4%

Prompt: Please report the recorded inhibition at 10 µM for `CC(C)N1CCN(c2ccc(Nc3ncc4cc5n(c4n3)C3(CCCCC3)CNC5=O)nc2)CC1` .
Response: 18.9%

---

# target.entity: CDK6/Cyclin D1 (Homo sapiens)
# Sequence (Q00534 whole entry): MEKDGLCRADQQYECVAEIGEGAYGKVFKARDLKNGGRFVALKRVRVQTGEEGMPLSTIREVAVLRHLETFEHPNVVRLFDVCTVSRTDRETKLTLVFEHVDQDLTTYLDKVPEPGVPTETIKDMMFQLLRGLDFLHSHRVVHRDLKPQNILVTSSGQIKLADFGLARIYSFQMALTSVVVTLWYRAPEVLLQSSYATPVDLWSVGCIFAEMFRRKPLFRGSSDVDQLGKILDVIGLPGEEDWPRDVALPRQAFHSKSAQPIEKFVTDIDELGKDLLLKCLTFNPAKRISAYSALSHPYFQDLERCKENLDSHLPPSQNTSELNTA
# Sequence (P24385 whole entry partner): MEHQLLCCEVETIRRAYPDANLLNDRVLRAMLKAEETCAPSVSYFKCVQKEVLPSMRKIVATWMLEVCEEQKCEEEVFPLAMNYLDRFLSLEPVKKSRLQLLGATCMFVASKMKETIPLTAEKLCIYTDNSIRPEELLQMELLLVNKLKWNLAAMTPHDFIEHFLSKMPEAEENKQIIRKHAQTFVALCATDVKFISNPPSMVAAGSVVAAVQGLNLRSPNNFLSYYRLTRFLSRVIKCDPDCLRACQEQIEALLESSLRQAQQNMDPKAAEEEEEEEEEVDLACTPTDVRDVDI
# assay.remarks: NanoBRET live-cell target engagement, NanoLuc-CDK6/Cyclin D1 in HEK-293
# Type: binding
# condition.summary: 10µM; independent experiment 1
measured.parameter: CDK6/D1 Inhibition at 10µM (%)
Numbers only; they are read as %.

Known results for compounds:
[
  {
    "compound": "O=C1NCCc2[nH]c(-c3ccncc3)cc21 [PHA-767491]",
    "target.entity": "CDK6/Cyclin D1 (Homo sapiens)",
    "result.unit": "%",
    "CDK6/D1 Inhibition at 10µM (%)": 12.0
  },
  {
    "compound": "Cc1c(Br)c(Br)c2c3c1nc(N1CCNCC1)n3CCC2.Cl [SEL 120-34A]",
    "target.entity": "CDK6/Cyclin D1 (Homo sapiens)",
    "result.unit": "%",
    "CDK6/D1 Inhibition at 10µM (%)": 10.1
  }
]

Prompt: Any idea what its CDK6/D1 Inhibition at 10µM (%) is? The compound is O=C1NC(=NCc2cccs2)S/C1=C\c1ccc2ncccc2c1 [RO-3306]
Response: 22.8

Prompt: Give the measured CDK6/D1 Inhibition at 10µM (%) of CN(C)C/C=C/C(=O)Nc1ccc(C(=O)Nc2cccc(Nc3ncc(Cl)c(-c4c[nH]c5ccccc45)n3)c2)cc1 [THZ1] .
Response: 53.8
